Catalogue of compounds with associated normalised response
- Tested on: CAL-148
- experiment: normalised response (% of control), CellTiter-Glo; higher = more viable cells (100 = DMSO, 0 = benzethonium chloride kill control)
- assay conditions: incubation time: 72 h
The reply should contain only the number, in %.

Example entries begin here.
C=CCc1cccc(/C=N/NC(=O)CN2CCN(Cc3ccccc3)CC2)c1O [PAC-1] (1 nM)
96
C=CC(=O)Nc1cc2c(Nc3ccc(F)c(Cl)c3)ncnc2cc1OCCCN1CCOCC1 [Canertinib] (1 nM)
103

Now take the following compound into account.
What normalised response value was documented for this compound, Nc1nc2[nH]cc(CCc3ccc(C(=O)N[C@@H](CCC(=O)O)C(=O)O)cc3)c2c(=O)[nH]1 [Pemetrexed] (1000 nM) ?
95.7

---

- Tested on: BT-474
- experiment: normalised response (% of control), CellTox Green; higher = less cell death (100 = DMSO, 0 = benzethonium chloride kill control)
- assay conditions: incubation time: 72 h
reported metric: normalised response (%)
The reply should contain only the number, in %.

Example entries begin here.
CC[C@H](C)C(=O)O[C@H]1C[C@H](O)C=C2C=C[C@H](C)[C@H](CC[C@@H](O)C[C@@H](O)CC(=O)O)[C@H]21 [Pravastatin] (1000 nM)
99.3
C=CC(=O)Nc1cc2c(Nc3ccc(F)c(Cl)c3)ncnc2cc1OCCCN1CCOCC1 [Canertinib] (10000 nM)
55.4
O=C(O)CCCCC(CCSCc1ccccc1)SCc1ccccc1 (stereo not given) [CPI-613] (100 nM)
93.3
Cc1cnc(NC(=O)Nc2cc(Br)c(C)cc2OC[C@@H]2CNCCO2)cn1 [Rabusertib] (100 nM)
102
CC1=C(/C=C/C(C)=C/C=C/C(C)=C/C(=O)O)C(C)(C)CCC1 [Tretinoin] (1000 nM)
99.4
CC[C@@H]1C(=O)N(C)c2cnc(Nc3ccc(C(=O)NC4CCN(C)CC4)cc3OC)nc2N1C1CCCC1 [BI 2536] (100 nM)
100
CC[C@H](Nc1ncnc2[nH]cnc12)c1nc2cccc(F)c2c(=O)n1-c1ccccc1 [GS-1101] (100 nM)
93
COc1cc([C@@H]2c3cc4c(cc3[C@@H](O[C@@H]3O[C@@H]5CO[C@@H](c6cccs6)O[C@H]5[C@H](O)[C@H]3O)[C@H]3COC(=O)[C@H]23)OCO4)cc(OC)c1O [Teniposide] (100 nM)
99.7

What normalised response value was documented for this molecule, CNC(=O)c1cc(Oc2ccc(NC(=O)Nc3cc(C(C)(C)C)nn3-c3ccc4ncccc4c3)c(F)c2)ccn1 [Rebastinib] (1000 nM) ?
89.2

What normalised response value was documented for this molecule, O=C(O)CCCCC(CCSCc1ccccc1)SCc1ccccc1 (stereo not given) [CPI-613] (1000 nM) ?
98.6

---

- System: BT-474
- experiment: drug sensitivity score (DSS), CellTiter-Glo (DSS (AUC-based score)); higher = stronger drug effect (viability inhibition or cytotoxicity); extreme values may be limits of the assay
- assay conditions: incubation time: 72 h
Catalogue of molecules with associated drug sensitivity score
Keep it simple and answer with nothing but the number.

Example entries begin here.
C=CC(=O)Nc1cc2c(Nc3ccc(F)c(Cl)c3)ncnc2cc1OCCCN1CCOCC1 [Canertinib]
6.57
CC[C@H](C)C(=O)O[C@H]1C[C@H](O)C=C2C=C[C@H](C)[C@H](CC[C@@H](O)C[C@@H](O)CC(=O)O)[C@H]21 [Pravastatin]
3.69
Cc1cnc(NC(=O)Nc2cc(Br)c(C)cc2OC[C@@H]2CNCCO2)cn1 [Rabusertib]
0
Nc1nc(F)nc2c1ncn2[C@@H]1O[C@H](CO)[C@@H](O)[C@@H]1O [Fludarabine]
0
COc1cc2c(NC3CCN(C(C)C)CC3)nc(C3CCCCC3)nc2cc1OCCCN1CCCC1 [UNC0638]
6.49

Now take the following molecule into account.
What drug sensitivity score value was documented for this molecule, O=C(Cc1ccc(-c2ccc(OCCN3CCOCC3)cc2)cn1)NCc1ccccc1 [KX2-391] ?
12.8

Sourced from the supplement of paper PMC4862054
